Tested on: NCI-H358 (ATCC-CRL5807) cells
protocol: Cell viability assay, G12C (NCI-H358)
Format: cell-based, human
cond: Homo sapiens; KRAS cell viability, NCI-H358, 72 hrs, Cell Counting Kit-8
property label: IC50

[[record]]
compound = "CCn1c(-c2cc(N3CCN(C)CC3)cnc2[C@H](C)OC)c2c3cc(c(F)cc31)-c1csc(n1)C[C@H](NC(=O)[C@H](C(C)C)N1CC[C@@]3(CCN(C(=O)[C@H](F)Cl)C3)C1=O)C(=O)N1CCC[C@H](N1)C(=O)OCC(C)(C)C2 (atropisomer, axis not shown; (M))"
property_label = "IC50"
endpoint_value = "< 1 nM"

[[record]]
compound = "CCn1c(-c2cc(N3CCN(C)CC3)cnc2[C@H](C)OC)c2c3cc(c(F)cc31)-c1csc(n1)C[C@H](NC(=O)[C@H](C(C)C)N(C)C(=O)C1(F)CCN(C(=O)[C@H](F)Cl)CC1)C(=O)N1CCC[C@H](N1)C(=O)OCC(C)(C)C2 (atropisomer, axis not shown; (M))"
property_label = "IC50"
endpoint_value = "< 1 nM"

[[record]]
compound = "CO[C@@H](C)c1ncc(N2CCN(C)CC2)cc1-c1c2c3cc(c(F)cc3n1CC(F)(F)F)-c1csc(n1)C[C@H](NC(=O)[C@H](C(C)C)N(C)C(=O)C1(F)CCN(C(=O)[C@H](F)Cl)CC1)C(=O)N1CCC[C@H](N1)C(=O)OCC(C)(C)C2 (atropisomer, axis not shown; (M))"
property_label = "IC50"
endpoint_value = "< 1 nM"


* * *

Test system: phosphorylation of ERK, KRAS G12V in SW620
protocol: pERK inhibition assay, KRAS G12V
Type: cell-based, human
cond: Homo sapiens, SW-620, SW620, 4 hours
Protocol: This assay is to measure the ability of test compounds in inhibiting the phosphorylation of ERK, the downstream signaling of KRAS G12C in NCJ-H358 cells, KRAS G12D in AGS cells, and KRAS G12V in SW620. […] The amount of phosphor-ERK was determined using an antibody specific for phosphorylated form of ERK. […] 50 μL stop solution (abcam-ab171529) were added, and then read the signal (OD450) by EnVision. IC50 was determined by fitting a 4-parameter sigmoidal concentration response model.
property label: IC50 (nM)

[[record]]
compound = "CCn1c(-c2cc(N3CCOCC3)cnc2[C@H](C)OC)c2c3cc(c(F)cc31)-c1csc(n1)C[C@H](NC(=O)[C@H](C(C)C)N(C)C(=O)[C@H]1CCN(C(=O)[C@H](F)Cl)C1)C(=O)N1CCC[C@H](N1)C(=O)OCC(C)(C)C2 (atropisomer, axis not shown; (M))"
property_label = "IC50"
qualifier_symbol = "="
endpoint_value = 75

[[record]]
compound = "CO[C@@H](C)c1ncc(N2CCN(CC(F)(F)F)CC2)cc1-c1c2c3cc(c(F)cc3n1CC(F)(F)F)-c1csc(n1)C[C@H](NC(=O)[C@H](C(C)C)N1CC[C@@]3(CCN(C(=O)[C@H](F)Cl)C3)C1=O)C(=O)N1CCC[C@H](N1)C(=O)OCC(C)(C)C2 (atropisomer, axis not shown)"
property_label = "IC50"
qualifier_symbol = "="
endpoint_value = 44

[[record]]
compound = "CC(C)[C@@H](C(=O)N[C@H]1Cc2cc(O)cc(c2)-c2ccc3c(C(C)(C)C#N)cn(c3c2)CC(C)(C)COC(=O)[C@@H]2CCCN(N2)C1=O)N1CCCC2(CCN(C(=O)CCl)C2)C1=O (stereo partly shown) [RM351, reference compound]"
property_label = "IC50"
qualifier_symbol = ">"
endpoint_value = 10000

[[record]]
compound = "CCn1c(-c2cc(N3CCN(C)CC3)cnc2[C@H](C)OC)c2c3cc(c(F)cc31)-c1csc(n1)C[C@H](NC(=O)[C@H](C(C)C)N(C)C(=O)C1(F)CCN(C(=O)[C@H](F)Cl)CC1)C(=O)N1CCC[C@H](N1)C(=O)OCC(C)(C)C2 (atropisomer, axis not shown; (M))"
property_label = "IC50"
qualifier_symbol = "="
endpoint_value = 12


* * *

tested target: KRAS G12C-BRAF complex (Homo sapiens (Human), UniProt P01116+P62937, G12C)
Sequence (P01116-2 other isoform, or with tags, fused parts or gaps G12C): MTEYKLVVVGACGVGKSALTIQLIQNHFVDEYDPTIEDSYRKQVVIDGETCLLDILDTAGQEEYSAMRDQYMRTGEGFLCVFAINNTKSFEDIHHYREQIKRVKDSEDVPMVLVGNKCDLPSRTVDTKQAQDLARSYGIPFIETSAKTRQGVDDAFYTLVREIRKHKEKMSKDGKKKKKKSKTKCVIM
Sequence (P62937 whole entry): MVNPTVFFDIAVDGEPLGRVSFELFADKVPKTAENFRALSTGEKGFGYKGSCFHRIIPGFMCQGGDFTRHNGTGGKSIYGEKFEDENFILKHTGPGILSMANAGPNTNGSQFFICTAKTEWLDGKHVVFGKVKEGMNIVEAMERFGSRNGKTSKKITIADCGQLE
protocol: KRAS-BRAF with CYPA (500 nM) interaction assay (TR-FRET), G12C
Assay type: biochemical
Please assign a class to every record based on measured IC50, with ranges lower = under 20 nM, middle = from 20 nM up to 90 nM, upper = 90 nM and over

[[record]]
molecule = "CCn1c(-c2cc(N3CCN(C)CC3)cnc2[C@H](C)OC)c2c3cc(c(F)cc31)-c1csc(n1)C[C@H](NC(=O)[C@H](C(C)C)N1CC[C@]3(CCN(C(=O)[C@H](F)Cl)C3)C1=O)C(=O)N1CCC[C@H](N1)C(=O)OCC(C)(C)C2 (atropisomer, axis not shown; (M))"
tested_target = "KRAS G12C-BRAF complex (Homo sapiens (Human), UniProt P01116+P62937, G12C)"
assigned_class = "middle"

[[record]]
molecule = "CO[C@@H](C)c1ncc(N2CCN(C)CC2)cc1-c1c2c3cc(c(F)cc3n1CC(F)(F)F)-c1csc(n1)C[C@H](NC(=O)[C@H](C(C)C)N1CCCC3(CN(C(=O)[C@H](F)Cl)C3)C1=O)C(=O)N1CCC[C@H](N1)C(=O)OCC(C)(C)C2 (atropisomer, axis not shown; (M))"
tested_target = "KRAS G12C-BRAF complex (Homo sapiens (Human), UniProt P01116+P62937, G12C)"
assigned_class = "middle"

[[record]]
molecule = "CCn1c(-c2cc(N3CCOCC3)cnc2[C@H](C)OC)c2c3cc(c(F)cc31)-c1csc(n1)C[C@H](NC(=O)[C@H](C(C)C)N1CCC3(CN(C(=O)[C@H](F)Cl)C3)C1=O)C(=O)N1CCC[C@H](N1)C(=O)OCC(C)(C)C2 (atropisomer, axis not shown; (M))"
tested_target = "KRAS G12C-BRAF complex (Homo sapiens (Human), UniProt P01116+P62937, G12C)"
assigned_class = "upper"

[[record]]
molecule = "CO[C@@H](C)c1ncc(N2CCN(C)CC2)cc1-c1c2c3cc(c(F)cc3n1CC(F)(F)F)-c1csc(n1)C[C@H](NC(=O)[C@H](C(C)C)N1CCC3(CN(C(=O)[C@H](F)Cl)C3)C1=O)C(=O)N1CCC[C@H](N1)C(=O)OCC(C)(C)C2 (atropisomer, axis not shown)"
tested_target = "KRAS G12C-BRAF complex (Homo sapiens (Human), UniProt P01116+P62937, G12C)"
assigned_class = "upper"

[[record]]
molecule = "CO[C@@H](C)c1ncc(N2CCN(C)CC2)cc1-c1c2c3cc(c(F)cc3n1CC(F)(F)F)-c1cc(O)cc(c1)C[C@H](NC(=O)[C@H](C(C)C)N(C)C(=O)[C@H]1CCN(C(=O)[C@H](F)Cl)C1)C(=O)N1CCC[C@H](N1)C(=O)OCC(C)(C)C2 (atropisomer, axis not shown; (M))"
tested_target = "KRAS G12C-BRAF complex (Homo sapiens (Human), UniProt P01116+P62937, G12C)"
assigned_class = "lower"

[[record]]
molecule = "CO[C@@H](C)c1ncc(N2CCN(CC(F)(F)F)CC2)cc1-c1c2c3cc(c(F)cc3n1CC(F)(F)F)-c1csc(n1)C[C@H](NC(=O)[C@H](C(C)C)N1CC[C@]3(CCN(C(=O)[C@H](F)Cl)C3)C1=O)C(=O)N1CCC[C@H](N1)C(=O)OCC(C)(C)C2 (atropisomer, axis not shown; (M))"
tested_target = "KRAS G12C-BRAF complex (Homo sapiens (Human), UniProt P01116+P62937, G12C)"
assigned_class = "lower"

[[record]]
molecule = "CO[C@@H](C)c1ncc(N2CCN(CC(F)(F)F)CC2)cc1-c1c2c3cc(c(F)cc3n1CC(F)(F)F)-c1csc(n1)C[C@H](NC(=O)[C@H](C(C)C)N1CC[C@@]3(CCN(C(=O)[C@H](F)Cl)C3)C1=O)C(=O)N1CCC[C@H](N1)C(=O)OCC(C)(C)C2 (atropisomer, axis not shown)"
tested_target = "KRAS G12C-BRAF complex (Homo sapiens (Human), UniProt P01116+P62937, G12C)"
assigned_class = "middle"

[[record]]
molecule = "CCn1c(-c2cc(N3CCN(CC(F)(F)F)CC3)cnc2[C@H](C)OC)c2c3cc(c(F)cc31)-c1csc(n1)C[C@H](NC(=O)[C@H](C(C)C)N1CC[C@]3(CCN(C(=O)[C@H](F)Cl)C3)C1=O)C(=O)N1CCC[C@H](N1)C(=O)OCC(C)(C)C2"
tested_target = "KRAS G12C-BRAF complex (Homo sapiens (Human), UniProt P01116+P62937, G12C)"
assigned_class = "middle"


* * *

System: cryopreserved suspension hepatocytes from human
protocol: Human hepatocyte stability assay
Format: in vitro ADME
cond: human hepatocytes 1×10^6 cells/mL, 37° C.
property label: CL_hep (Human) (mL/min/kg)

[[record]]
molecule = "CC(C)[C@@H](C(=O)N[C@H]1Cc2cc(O)cc(c2)-c2ccc3c(C(C)(C)C#N)cn(c3c2)CC(C)(C)COC(=O)[C@@H]2CCCN(N2)C1=O)N1CCC2(CN(C(=O)CCl)C2)C1=O [RM44, reference compound]"
unit_tag = "mL/min/kg"
qualifier_symbol = "="
endpoint_value = 14.7

[[record]]
molecule = "CO[C@@H](C)c1ncc(N2CCN(C)CC2)cc1-c1c2c3cc(c(F)cc3n1CC(F)(F)F)-c1csc(n1)C[C@H](NC(=O)[C@H](C(C)C)N1CCC3(CCN(C(=O)[C@H](F)Cl)CC3)C1=O)C(=O)N1CCC[C@H](N1)C(=O)OCC(C)(C)C2 (atropisomer, axis not shown; (M)) [Example 15]"
unit_tag = "mL/min/kg"
qualifier_symbol = "="
endpoint_value = 10.9

[[record]]
molecule = "CO[C@@H](C)c1ncc(N2CCN(C)CC2)cc1-c1c2c3cc(c(F)cc3n1CC(F)(F)F)-c1csc(n1)C[C@H](NC(=O)[C@H](C(C)C)N1CCCC3(CCN(C(=O)[C@H](F)Cl)CC3)C1=O)C(=O)N1CCC[C@H](N1)C(=O)OCC(C)(C)C2 (atropisomer, axis not shown; (M)) [Example 6]"
unit_tag = "mL/min/kg"
qualifier_symbol = "="
endpoint_value = 13.4

[[record]]
molecule = "CC(C)[C@@H](C(=O)N[C@H]1Cc2cc(O)cc(c2)-c2ccc3c(C(C)(C)C#N)cn(c3c2)CC(C)(C)COC(=O)[C@@H]2CCCN(N2)C1=O)N1CCC2(CN(C(=O)[C@H](F)Cl)C2)C1=O [RM44-A, reference compound]"
unit_tag = "mL/min/kg"
qualifier_symbol = "<"
endpoint_value = 2.4

[[record]]
molecule = "CO[C@@H](C)c1ncc(N2CCN(C)CC2)cc1-c1c2c3cc(c(F)cc3n1CC(F)(F)F)-c1csc(n1)C[C@H](NC(=O)[C@H](C(C)C)N1CC[C@@]3(CCN(C(=O)[C@H](F)Cl)C3)C1=O)C(=O)N1CCC[C@H](N1)C(=O)OCC(C)(C)C2 (atropisomer, axis not shown; (M)) [Example 4]"
unit_tag = "mL/min/kg"
qualifier_symbol = "="
endpoint_value = 6.4

[[record]]
molecule = "CO[C@@H](C)c1ncc(N2CCN(C)CC2)cc1-c1c2c3cc(c(F)cc3n1CC(F)(F)F)-c1csc(n1)C[C@H](NC(=O)[C@H](C(C)C)N1CC[C@]3(CCN(C(=O)[C@H](F)Cl)C3)C1=O)C(=O)N1CCC[C@H](N1)C(=O)OCC(C)(C)C2 (atropisomer, axis not shown; (M)) [Example 5]"
unit_tag = "mL/min/kg"
qualifier_symbol = "="
endpoint_value = 12.5

[[record]]
molecule = "CCn1c(-c2cc(N3CCN(CC(F)(F)F)CC3)cnc2[C@H](C)OC)c2c3cc(c(F)cc31)-c1csc(n1)C[C@H](NC(=O)[C@H](C(C)C)N1CCC3(CN(C(=O)[C@H](F)Cl)C3)C1=O)C(=O)N1CCC[C@H](N1)C(=O)OCC(C)(C)C2 (atropisomer, axis not shown; (M)) [Example 37]"
unit_tag = "mL/min/kg"
qualifier_symbol = "="
endpoint_value = 2.4

